# literature pull: USP19 (Homo sapiens (Human)) pIC50
# Sequence (O94966 whole entry): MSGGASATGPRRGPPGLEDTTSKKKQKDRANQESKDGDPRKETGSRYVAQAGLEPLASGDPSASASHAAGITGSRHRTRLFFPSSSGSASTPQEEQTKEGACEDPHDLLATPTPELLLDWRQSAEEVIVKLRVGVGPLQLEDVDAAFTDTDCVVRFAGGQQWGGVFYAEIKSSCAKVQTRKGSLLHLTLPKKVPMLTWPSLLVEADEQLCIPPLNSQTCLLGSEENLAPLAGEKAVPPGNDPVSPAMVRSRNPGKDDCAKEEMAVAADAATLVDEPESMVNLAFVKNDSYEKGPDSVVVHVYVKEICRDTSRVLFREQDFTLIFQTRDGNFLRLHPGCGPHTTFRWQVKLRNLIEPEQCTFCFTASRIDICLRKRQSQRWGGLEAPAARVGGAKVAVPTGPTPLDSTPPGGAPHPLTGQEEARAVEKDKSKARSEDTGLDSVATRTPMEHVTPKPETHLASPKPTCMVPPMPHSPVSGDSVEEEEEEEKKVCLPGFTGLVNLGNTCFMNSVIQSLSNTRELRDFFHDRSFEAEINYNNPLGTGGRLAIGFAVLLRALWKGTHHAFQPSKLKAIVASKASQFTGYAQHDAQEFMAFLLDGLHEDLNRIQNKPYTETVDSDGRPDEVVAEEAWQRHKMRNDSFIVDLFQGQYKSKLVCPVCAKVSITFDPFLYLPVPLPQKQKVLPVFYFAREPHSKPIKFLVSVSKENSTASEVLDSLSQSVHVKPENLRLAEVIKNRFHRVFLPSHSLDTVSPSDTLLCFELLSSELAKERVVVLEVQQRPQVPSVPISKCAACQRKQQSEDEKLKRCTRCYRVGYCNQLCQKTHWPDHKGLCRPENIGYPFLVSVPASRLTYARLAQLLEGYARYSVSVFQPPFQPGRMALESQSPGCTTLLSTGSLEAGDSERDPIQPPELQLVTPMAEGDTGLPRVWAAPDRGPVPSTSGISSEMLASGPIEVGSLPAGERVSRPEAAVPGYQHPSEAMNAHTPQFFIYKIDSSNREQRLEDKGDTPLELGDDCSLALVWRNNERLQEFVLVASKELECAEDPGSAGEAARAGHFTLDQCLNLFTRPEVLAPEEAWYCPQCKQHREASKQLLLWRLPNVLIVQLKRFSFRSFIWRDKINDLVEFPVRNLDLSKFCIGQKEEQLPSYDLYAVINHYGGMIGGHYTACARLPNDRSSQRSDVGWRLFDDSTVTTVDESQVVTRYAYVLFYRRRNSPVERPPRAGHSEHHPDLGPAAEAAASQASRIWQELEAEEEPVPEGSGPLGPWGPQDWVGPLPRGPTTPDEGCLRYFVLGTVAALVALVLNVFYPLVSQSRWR
pIC50: −log10 of the molar value.

| compound | pIC50 |
| --- | --- |
| C[C@H](CC1CCCCC1)C(=O)N1CCC(O)(Cn2ccc3ncncc3c2=O)C2(CCCC2)C1 (stereo partly shown) | 5.30 to 6.30 |
| CC(CN1CCCCC1)C(=O)N1CCC(O)(Cn2cc(C(=O)N(C)C)c(-c3ccccc3)cc2=O)C2(CCCC2)C1 (stereo not shown) | 3.60 to 4.30 |
| CC(=O)N1CCN(C(=O)N2CC[C@@](O)(Cn3cnc(-c4ccccc4)cc3=O)C3(CCCC3)C2)[C@H](c2ccccc2)C1 | 5.30 to 6.30 |
| O=C(N1CC[C@@](O)(Cn2cnc(-c3ccccc3)cc2=O)C2(CCCC2)C1)N1CCNC[C@H]1c1cccc(F)c1 | > 6.30 |
| O=C(N1CC[C@@](O)(Cn2cnc(-c3ccc(F)cc3)cc2=O)C2(CCCC2)C1)N1CCNC[C@H]1c1ccccc1 | > 6.30 |
| O=C(N1CCC(O)(Cn2ccc3ccncc3c2=O)C2(CCCC2)C1)N1CCNC[C@H]1c1ccccc1 (stereo partly shown) | > 6.30 |
| CN(C)C(=O)c1cn(C[C@@]2(O)CCN(C(=O)[C@H](CO)CC3CCC3)CC2(C)C)c(=O)cc1-c1ccccc1 | 4.30 to 5.30 |
| O=C(N1CC[C@@](O)(Cn2cnc(N3CCC(F)CC3)cc2=O)C2(CCCC2)C1)N1CCNC[C@H]1c1ccccc1 | > 6.30 |
| CN(Cc1cccc(C#N)c1)C(=O)N1CCC(O)(Cn2cnc(-c3ccccc3)cc2=O)C2(CCCC2)C1 (stereo not shown) | 5.30 to 6.30 |
| C[C@H](CC(=O)N1CCC(O)(Cn2cnc(Oc3ccc(F)cc3)cc2=O)CC1)c1ccccc1 | 3.60 to 4.30 |
| C[C@H](CC(=O)N1CCC(O)(Cn2cnc(-c3cccc4cnn(C)c34)cc2=O)CC1)c1ccccc1 | 4.30 to 5.30 |
| O=C(N1CCC(O)(Cn2cnc(-c3ccccc3)cc2=O)C2(CCCC2)C1)N1CCC[C@H]1c1ccon1 (stereo partly shown) | 5.30 to 6.30 |
| CN(C)C(=O)c1cn(CC2(O)CCN(C(=O)CCc3ccc(F)cc3)CC23CCCC3)c(=O)cc1-c1ccccc1 (stereo not shown) | 5.30 to 6.30 |
| C[C@H](CC(F)(F)F)C(=O)N1CCC(O)(Cn2cnc3sccc3c2=O)C2(CCCC2)C1 (stereo partly shown) | 3.60 to 4.30 |
| CC(OC1CCCCC1)C(=O)N1CCC(O)(Cn2cc(C(=O)N(C)C)c(-c3ccccc3)cc2=O)C2(CCCC2)C1 (stereo not shown) | 4.30 to 5.30 |
| O=C(N1CCC(O)(Cn2cnc(-c3ccccc3)cc2=O)C2(CCCC2)C1)N1CCNCC1c1cccnc1 (stereo not shown) | 5.30 to 6.30 |
| N=S1(=O)CCN(C(=O)N2CC[C@@](O)(Cn3cnc(-c4ccccc4)cc3=O)C3(CCCC3)C2)[C@H](c2cc(F)ccc2F)C1 (mixture of isomers) | > 6.30 |
| COc1ccccc1-c1cc(=O)n(C[C@]2(O)CCN(C(=O)N3CCNC[C@H]3c3cccc(F)c3)CC23CCCC3)cn1 | > 6.30 |
| C[C@H](CC(=O)N1CCC(O)(Cc2cnc(-c3ccccc3)[nH]c2=O)CC1)c1ccccc1 | 4.30 to 5.30 |
| O=C(NCc1ccccc1)N1CCC(O)(Cn2cnc(-c3cccnc3)cc2=O)C2(CCCC2)C1 (stereo not shown) | 4.30 to 5.30 |
| O=C(N1CC[C@@](O)(Cn2cnc(-c3ccccc3OC3CC3)cc2=O)C2(CCCC2)C1)N1CCNC[C@H]1c1ccccc1 | > 6.30 |
| C[C@H](CC1CCC1)C(=O)N1CC[C@@](O)(Cn2cc(C(=O)N3CCNCC3)c(C3CC3)cc2=O)C2(CCCC2)C1 | 5.30 to 6.30 |
| C[C@H](CC1CCCCC1)C(=O)N1CC[C@@](O)(Cn2cc(N=S(C)(C)=O)c(-c3ccccc3F)cc2=O)C(C)(C)C1 | 5.30 to 6.30 |
| C[C@H](CC(=O)N1CCC(O)(Cn2ccc(-c3ccccc3)cc2=O)CC1)c1ccccc1 | 3.60 to 4.30 |
| C[C@H](CC(=O)N1CCC(O)(Cn2cc(C#N)c(-c3ccccc3)cc2=O)CC1)c1ccccc1 | 4.30 to 5.30 |
| O=C1CN(C(=O)N2CC[C@@](O)(Cn3cnc(-c4ccccc4)cc3=O)C3(CCCC3)C2)[C@H](c2ccccc2)CN1 | > 6.30 |
| O=C(N1CCC(O)(Cn2cnc(-c3ccccc3)cc2=O)C2(CCCC2)C1)N1CCOCC12CCCCC2 (stereo not shown) | 4.30 to 5.30 |
| C[C@H](CC1CCCCC1)C(=O)N1CCC(O)(Cn2cc(C(=O)N3CCNCC3)ncc2=O)C2(CCCC2)C1 (stereo partly shown) | > 6.30 |
